experiment: Pharmacokinetics and total colon distribution after single oral administration; type: in vivo, male C57BL/6 mice; details: male, C57BL/6, mouse, total colon; mice, 4 h; Ex. 16 measured after oral 5 mg/kg of Ex. 19 (Na salt); read-out: total colon level
resultType: concentration at 4 h (ng/g)
Give bare numbers, in ng/g.

**Query** May I ask what concentration at 4 h has been recorded for COc1cc(Nc2cc(Oc3ccc(NC(=O)Nc4cc(C(C)(C)C)cc(NS(C)(=O)=O)c4OC)c4ccccc34)ccn2)ccc1C(=O)NCCOCCOCCO ?
**Result** 3350

----------
experiment: Pharmacokinetics and total colon distribution after single oral administration; type: in vivo, male C57BL/6 mice; details: male, C57BL/6, mouse, plasma; mice, oral 5 mg/kg, 24 h; measured cpd = dosed cpd (1 as Na salt, 44 as NH4+ salt); read-out: Mean plasma concentration
resultType: concentration at 24 h (ng/mL)
Answers are plain numbers, in ng/mL.

**Query** May I ask what concentration at 24 h has been recorded for COc1cc(Nc2cc(Oc3ccc(NC(=O)Nc4cc(C(C)(C)C)cc(NS(C)(=O)=O)c4OC)c4ccccc34)ccn2)ccc1P(C)(=O)O [Example 44] ?
**Result** 0

----------
assay: Solubility in fasted-state simulated colonic fluid (FaSSCoF) at pH 6.5; assay type: physicochemical; conditions: 25 °C, pH 6.5, fassgf or other biorelevant, thermodynamic from solid, pH 6.5 FaSSCoF Solubility (mg/mL) Run 2
Structures can show the parent of a compound that is named as a salt.
resultType: solubility thermodynamic at 24 h (µg/mL)
Answers are plain numbers, in µg/mL.

Use the examples below as a reference point.
{"columns": ["compound", "resultType", "unitInfo", "resultValue"],
 "data": [
  ["COc1c(NC(=O)Nc2ccc(Oc3ccnc(Nc4ccc(C(=O)O)c(N(C)C)c4)c3)c3ccccc23)cc(C(C)(C)C)cc1NS(C)(=O)=O", "solubility thermodynamic at 24 h", "µg/mL", 12],
  ["COc1c(NC(=O)Nc2ccc(Oc3ccnc(Nc4ccc(C(=O)NCCN5CCN(C)CC5)c(N(C)C)c4)c3)c3ccccc23)cc(C(C)(C)C)cc1NS(C)(=O)=O", "solubility thermodynamic at 24 h", "µg/mL", 9],
  ["COc1cc(Nc2cc(Oc3ccc(NC(=O)Nc4cc(C(C)(C)C)cc(NS(C)(=O)=O)c4OC)c4ccccc34)ccn2)ccc1C(=O)NCCC(=O)N1C[C@H](O)[C@@H](O)[C@H](O)[C@H]1CO", "solubility thermodynamic at 24 h", "µg/mL", 1],
  ["COc1cc(Nc2nccc(Oc3ccc(NC(=O)Nc4cc(C(C)(C)C)cc(NS(C)(=O)=O)c4OC)c4ccccc34)n2)ccc1C(=O)NCCCN1CCOCC1", "solubility thermodynamic at 24 h", "µg/mL", 9]
]}

Shifting focus to the compound that follows.
**Query** May I ask what solubility thermodynamic at 24 h has been recorded for COc1cc(Nc2cc(Oc3ccc(NC(=O)Nc4cc(C(C)(C)C)cc(NS(C)(=O)=O)c4OC)c4ccccc34)ccn2)ccc1C(=O)NCCCC[C@H](N)C(=O)O [17(bu) (dihydrochloride salt)] ?
**Result** 6

----------
experiment: Solubility in fasted-state simulated colonic fluid (FaSSCoF) at pH 6.5; assay type: physicochemical; details: 25 °C, pH 6.5, fassgf or other biorelevant, thermodynamic from solid, pH 6.5 FaSSCoF Solubility (mg/mL) Run 1
Structures can show the parent of a compound that is named as a salt.
resultType: solubility thermodynamic at 24 h (µg/mL)
One number for each entry, in µg/mL.

{"columns": ["compound", "unitInfo", "solubility thermodynamic at 24 h"],
 "data": [
  ["COc1cc(Nc2cc(Oc3ccc(NC(=O)Nc4cc(C(C)(C)C)cc(NS(C)(=O)=O)c4OC)c4ccccc34)ccn2)ccc1S(=O)(=O)CCOCCOCCO [Example 40]", "µg/mL", 5],
  ["COc1cc(Nc2cc(Oc3ccc(NC(=O)Nc4cc(C(C)(C)C)cc(NS(C)(=O)=O)c4OC)c4ccccc34)ccn2)ccc1C(=O)NCC[N+]1([O-])CCOCC1 [Example 33]", "µg/mL", 5],
  ["COc1cc(Nc2cc(Oc3ccc(NC(=O)Nc4cc(C(C)(C)C)cc(NS(C)(=O)=O)c4OC)c4ccccc34)ccn2)cc(OC)c1C(=O)NCCN1CCOCC1 [17(ae)]", "µg/mL", 11]
]}

Would you mind listing solubility thermodynamic at 24 h for each of the following compounds?
1. COc1c(NC(=O)Nc2ccc(Oc3ccnc(Nc4ccc(P(C)(=O)O)c(N(C)C)c4)c3)c3ccccc23)cc(C(C)(C)C)cc1NS(C)(=O)=O [68 (sodium salt)]
2. COc1cc(Nc2cc(Oc3ccc(NC(=O)Nc4cc(C(C)(C)C)cc(NS(C)(=O)=O)c4OC)c4ccccc34)ccn2)ccc1C(=O)NCCN1CCN(C(=O)CN(C)C)CC1 [17(cj)]
3. COc1cc(Nc2cc(Oc3ccc(NC(=O)Nc4cc(C(C)(C)C)cc(NS(C)(=O)=O)c4OC)c4ccccc34)ccn2)ccc1C(=O)NCCCC[C@H](N)C(=O)O [17(bu) (dihydrochloride salt)]
4. COc1cc(Nc2cc(Oc3ccc(NC(=O)Nc4cc(C(C)(C)C)cc(NS(C)(=O)=O)c4OC)c4ccccc34)ccn2)ccc1C(=O)N[C@@H](CO)C(=O)O [17(bj) (sodium salt)]
5. COc1cc(Nc2cc(Oc3ccc(NC(=O)Nc4cc(C(C)(C)C)cc(NS(C)(=O)=O)c4OC)c4ccccc34)ccn2)ccc1C(=O)NCCC1CCN(C)CC1 [Example 14]
6. COc1cc(Nc2cc(Oc3ccc(NC(=O)Nc4cc(C(C)(C)C)cc(NS(C)(=O)=O)c4OC)c4ccccc34)ccn2)ccc1C(=O)N[C@H]1C(O)O[C@H](CO)[C@@H](O)[C@@H]1O (stereo partly shown) [17(br)]
7. COc1cc(Nc2cc(Oc3ccc(NC(=O)Nc4cc(C(C)(C)C)cc(NS(C)(=O)=O)c4OC)c4ccccc34)ccn2)cc(OC)c1C(=O)NCCN1CCN(C)CC1 [Example 22]

**Result**
1: 20; 2: 6; 3: 6; 4: 1310; 5: 16; 6: 9; 7: 17

Would you mind listing solubility thermodynamic at 24 h for each of the following compounds?
1. COc1cc(Nc2cc(Oc3ccc(NC(=O)Nc4cc(C(C)(C)C)cc(NS(C)(=O)=O)c4OC)c4ccccc34)ccn2)cc(OC)c1C(=O)NCCCN1CCOCC1 [Example 23]
2. COc1cc(Nc2cc(Oc3ccc(NC(=O)Nc4cc(C(C)(C)C)cc(NS(C)(=O)=O)c4OC)c4ccccc34)ccn2)ccc1C(=O)NCCC1(O)CCN(C)CC1 [17(bg)]

**Result**
[8, 16]

Would you mind listing solubility thermodynamic at 24 h for each of the following compounds?
1. COc1cc(Nc2cc(Oc3ccc(NC(=O)Nc4cc(C(C)(C)C)cc(NS(C)(=O)=O)c4OC)c4ccccc34)ccn2)ccc1C(=O)NC[C@H](O)[C@H](O)[C@H](O)CO [Example 42]
2. COc1cc(Nc2cc(Oc3ccc(NC(=O)Nc4cc(NS(C)(=O)=O)cc(C(C)(C)C)c4)c4ccccc34)ccn2)ccc1C(=O)NCCN1CCN(C)CC1 [17(bo)]
3. COc1cc(Nc2cc(Oc3ccc(NC(=O)Nc4cc(C(C)(C)C)cc(NS(C)(=O)=O)c4OC)c4ccccc34)ccn2)cc(OC)c1C(=O)NCCN1CCN(CCO)CC1 [Example 37]
4. COc1cc(Nc2cc(Oc3ccc(NC(=O)Nc4cc(C(C)(C)C)cc(NS(C)(=O)=O)c4OC)c4ccccc34)ccn2)ccc1C(=O)NCCC(=O)O [17(ay) (hydrochloride salt)]
5. COc1cc(Nc2cc(Oc3ccc(NC(=O)Nc4cc(C(C)(C)C)cc(NS(C)(=O)=O)c4OC)c4ccccc34)ccn2)ccc1C(=O)NC(CO)(CO)CO [17(cm)]

**Result**
[7, 35, 25, 29, 8]

Would you mind listing solubility thermodynamic at 24 h for each of the following compounds?
1. COc1cc(Nc2cc(Oc3ccc(NC(=O)Nc4cc(C(C)(C)C)cc(NS(C)(=O)=O)c4OC)c4ccccc34)ccn2)ccc1C(=O)NCCOCCO [17(bm)]
2. COc1c(NC(=O)Nc2ccc(Oc3ccnc(Nc4ccc(C(=O)NCCN5CCOCC5)c(N(C)C)c4)c3)c3ccccc23)cc(C(C)(C)C)cc1NS(C)(=O)=O [Example 21]
3. COc1c(NC(=O)Nc2ccc(Oc3ccnc(Nc4ccc(C(=O)NCCCN5CCOCC5)c(O)c4)c3)c3ccccc23)cc(C(C)(C)C)cc1NS(C)(=O)=O [Example 29]
4. COc1cc(Nc2cc(Oc3ccc(NC(=O)Nc4cc(C(C)(C)C)cc(NS(C)(=O)=O)c4OC)c4ccccc34)ccn2)cc(OC)c1C(=O)NCCCN1CCN(C)CC1 [17(au)]

**Result**
1. 5
2. 10
3. 11
4. 32
